biological target: bovine serum albumin (BSA) (Bos taurus, UniProt P02769); experiment: in vitro; conditions: bovine, pH 7.4
Sequence (P02769 25-607): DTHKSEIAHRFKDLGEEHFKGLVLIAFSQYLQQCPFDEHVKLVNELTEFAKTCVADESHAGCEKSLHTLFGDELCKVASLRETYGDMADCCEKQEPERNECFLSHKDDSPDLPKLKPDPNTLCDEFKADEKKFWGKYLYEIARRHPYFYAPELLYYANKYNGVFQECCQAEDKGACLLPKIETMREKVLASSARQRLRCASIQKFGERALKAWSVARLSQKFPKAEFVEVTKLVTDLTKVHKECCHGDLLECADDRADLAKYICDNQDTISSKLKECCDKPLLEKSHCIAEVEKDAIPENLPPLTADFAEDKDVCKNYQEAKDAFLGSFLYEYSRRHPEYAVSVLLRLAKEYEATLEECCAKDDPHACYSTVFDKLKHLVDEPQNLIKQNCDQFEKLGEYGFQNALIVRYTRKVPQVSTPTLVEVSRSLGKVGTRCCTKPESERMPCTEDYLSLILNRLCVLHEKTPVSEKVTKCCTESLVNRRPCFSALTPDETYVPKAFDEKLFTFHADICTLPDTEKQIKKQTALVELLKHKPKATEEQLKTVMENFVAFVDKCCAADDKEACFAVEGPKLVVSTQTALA
ASSAY_METRIC: kon (M⁻¹ s⁻¹)

Data request: Query (compound): C[C@@H]1O[C@@H](O[C@@H]2[C@@H](O)[C@H](OCCc3ccc(O)c(O)c3)O[C@H](CO)[C@H]2OC(=O)/C=C/c2ccc(O)c(O)c2)[C@H](O)[C@H](O)[C@H]1O [acteoside, Acteoside] ; field requested: kon
Data returned: 149

I. CC[C@]1(O)C[C@H]2CN(CCc3c([nH]c4ccccc34)[C@@](C(=O)OC)(c3cc4c(cc3OC)N(C=O)[C@H]3[C@@](O)(C(=O)OC)[C@H](OC(C)=O)[C@]5(CC)C=CCN6CC[C@]43[C@@H]65)C2)C1 [vincristine, Vincristine, reference compound]
II. COc1cccc2c1C(=O)c1c(O)c3c(c(O)c1C2=O)C[C@@](O)(C(=O)CO)C[C@@H]3O[C@H]1C[C@H](N)[C@H](O)[C@H](C)O1 [doxorubicin, Doxorubicin, reference compound]
Data request: Which has the higher kon, I or II ? Identify your selection by its label.
Data returned: I
(I: 784 M⁻¹ s⁻¹, II: 2 M⁻¹ s⁻¹)

###

biological target: bovine serum albumin (BSA) (Bos taurus); assay: ProteOn XPR36 SPR array biosensor binding to immobilized BSA; conditions: bovine, pH 7.4
ASSAY_METRIC: koff (s⁻¹)

Data request: Query (compound): COc1cccc2c1C(=O)c1c(O)c3c(c(O)c1C2=O)C[C@@](O)(C(=O)CO)C[C@@H]3O[C@H]1C[C@H](N)[C@H](O)[C@H](C)O1 [doxorubicin, Doxorubicin, reference compound] ; field requested: koff
Data returned: 0.73

a. C[C@@H]1O[C@@H](O[C@@H]2[C@@H](O)[C@H](OCCc3ccc(O)c(O)c3)O[C@H](CO)[C@H]2OC(=O)/C=C/c2ccc(O)c(O)c2)[C@H](O)[C@H](O)[C@H]1O [acteoside, Acteoside]
b. CC[C@]1(O)C[C@H]2CN(CCc3c([nH]c4ccccc34)[C@@](C(=O)OC)(c3cc4c(cc3OC)N(C=O)[C@H]3[C@@](O)(C(=O)OC)[C@H](OC(C)=O)[C@]5(CC)C=CCN6CC[C@]43[C@@H]65)C2)C1 [vincristine, Vincristine, reference compound]
Data request: Which has the higher koff, a or b ? Identify your selection by its label.
Data returned: b
(b: 1.96 s⁻¹, a: 0.09 s⁻¹)

###

Target: bovine serum albumin (BSA) (Bos taurus, UniProt P02769)
Test: ProteOn XPR36 SPR array biosensor binding to immobilized BSA
From the text: The GLH sensor chip, consisting of glass prisms coated with gold and an alginate-based layer, was an ideal choice for examining protein-small molecule interactions. The chip was initialized with 50% glycerol for several minutes prior to use. […] All sensorgrams for protein binding were collected, processed, and analyzed using the ProteOn Manager software. […]
pKd: −log10 of the molar value.
ASSAY_METRIC: pKd

Data request: Find the measured pKd: item C[C@@H]1O[C@@H](O[C@@H]2[C@@H](O)[C@H](OCCc3ccc(O)c(O)c3)O[C@H](CO)[C@H]2OC(=O)/C=C/c2ccc(O)c(O)c2)[C@H](O)[C@H](O)[C@H]1O [acteoside, Acteoside] , target or system bovine serum albumin (BSA) (Bos taurus, UniProt P02769).
Data returned: 3.13

Data request: Find the measured pKd: item O=C(/C=C/c1ccc(O)c2c1[C@H](C(=O)O[C@H](Cc1ccc(O)c(O)c1)C(=O)O)[C@@H](c1ccc(O)c(O)c1)O2)O[C@H](Cc1ccc(O)c(O)c1)C(=O)O , target or system bovine serum albumin (BSA) (Bos taurus, UniProt P02769).
Data returned: 3.64

A. CC[C@]1(O)C[C@H]2CN(CCc3c([nH]c4ccccc34)[C@@](C(=O)OC)(c3cc4c(cc3OC)N(C=O)[C@H]3[C@@](O)(C(=O)OC)[C@H](OC(C)=O)[C@]5(CC)C=CCN6CC[C@]43[C@@H]65)C2)C1 [vincristine, Vincristine, reference compound]
B. O=C(O)c1cc(O)c(O)c(O)c1
Data request: Which gives the smaller pKd number: A or B ? Identify your selection by its label.
Data returned: A
